test: Cytotoxicity against human Calu-3 cells assessed as cell viability measured after 72 hrs by luminescence based Cell-Titer-Glo assay; type: toxicity

- inputSmiles: "N=C(N)NCCC[C@H](NC(=O)[C@H](Cc1ccccc1)NC(=O)[C@H](CCC(N)=O)NC(=O)OCc1ccccc1)C(=O)c1nccs1"
  unitInfo: "µM"
  CC50 at 72 h: 110
- inputSmiles: "CN(C)C(=O)COC(=O)Cc1ccc(OC(=O)c2ccc(NC(=N)N)cc2)cc1"
  unitInfo: "µM"
  CC50 at 72 h: 110
- inputSmiles: "CS(=O)(=O)N[C@@H](CCC(N)=O)C(=O)N[C@@H](Cc1ccccc1)C(=O)N[C@@H](CCCNC(=N)N)C(=O)c1nccs1"
  unitInfo: "µM"
  CC50 at 72 h: 110
